Experiment: Stability in human hepatocytes
Assay type: in vitro ADME
Conditions: t1/2, Human Hepatocytes, Diastereoisomer B

{"columns": ["Compound", "half-life at 5 µM"],
 "data": [
  ["COC(=O)CCNC(=O)[C@@H]1OP(=O)(N[C@@H](C)C(=O)OC[C@H]2CCC(=O)N2)OCC1(C)C (stereo partly shown)", "> 240 min"],
  ["COC(=O)CCNC(=O)[C@@H]1OP(=O)(OCOC(=O)c2scnc2C)OCC1(C)C (stereo partly shown)", "15.6 min"],
  ["COC(=O)CCNC(=O)[C@@H]1OP(=O)(N[C@@H](C)C(=O)OCc2cc(C)cc(C)c2)OCC1(C)C (stereo partly shown)", "< 15 min"],
  ["COC(=O)CCNC(=O)[C@@H]1OP(=O)(N[C@@H](Cc2ccc(OC(C)(C)C)cc2)C(=O)OC(C)(C)C)OCC1(C)C (stereo partly shown)", "< 15 min"]
]}
